# method-notes: in vitro
# Design: species or system CCD841, HEK293
# reported-conditions: human, hb2 cells, read-out: HB-2 Cells Viability (%)
// values below are reported viability at 48 h, 10 µM
Give the number; % is assumed, so skip it.

Worked examples, 5 compounds total:
[
  {
    "compound": "C=CC(=O)N1CCC(c2noc(C3CC3)n2)CC1",
    "viability at 48 h, 10 µM (%)": 103
  },
  {
    "compound": "C=CC(=O)N1CCCC(c2nnc3ccc(C(F)(F)F)cn23)C1 (stereo not drawn)",
    "viability at 48 h, 10 µM (%)": 107
  },
  {
    "compound": "NS(=O)(=O)c1ccccc1NC(=O)CCl",
    "viability at 48 h, 10 µM (%)": 65.4
  },
  {
    "compound": "O=C(CCl)NC(=O)NCc1ccco1",
    "viability at 48 h, 10 µM (%)": 75.2
  },
  {
    "compound": "COC(=O)NC(=O)CCl",
    "viability at 48 h, 10 µM (%)": 106
  }
]

We now examine a further compound.
Request: Which viability at 48 h, 10 µM is listed for Cc1cc(C)c2nc(NC(=O)CCl)sc2c1 ?
Result: 51.6
